Data origin, for the record: ChEMBL document CHEMBL3832761

- System: Trypanosoma brucei
- experimental-details: AntiTrypanosoma brucei activity T. b. rhodesiense IC50 (uM)
- Format: functional, organism-based
IC50: recorded values
readout-label: IC50

[
  {
    "molecule-smiles": "NCCN(C(=O)c1ccc(Cl)cc1Cl)c1ccc(OCc2ccc(Cl)cc2)cc1",
    "readout-label": "IC50",
    "value-reported": "< 130 nM"
  },
  {
    "molecule-smiles": "Cc1nn(C)c(C)c1NS(=O)(=O)c1c(Cl)cc(-c2ccnc(N3CCNCC3)c2)cc1Cl",
    "readout-label": "IC50",
    "value-reported": "< 130 nM"
  },
  {
    "molecule-smiles": "Cc1ncc(-c2ccnc(Nc3ccc(S(C)(=O)=O)cc3)n2)n1C(C)C",
    "readout-label": "IC50",
    "value-reported": "< 130 nM"
  }
]

====

- System: Toxoplasma gondii
- experimental-details: AntiToxoplasma gondii activity data 2-day killing assay: IC50 (uM), Experiment F
- Type: functional, organism-based
- measurement-context: Toxoplasma gondii, 48 h; read-out: IC50
IC50: recorded values

[
  {
    "molecule-smiles": "CC(C)(C)n1nc(-c2ccccc2)c2c(N)ncnc21",
    "IC50 / µM": 1.1
  },
  {
    "molecule-smiles": "CN1CCC(c2cc(-c3ccncc3)c(-c3ccc(F)cc3)[nH]2)CC1",
    "IC50 / µM": 1.21
  },
  {
    "molecule-smiles": "O=C(OCc1ccccc1)N1CCC(c2cc(-c3ccncc3)c(-c3ccc(F)cc3)[nH]2)CC1",
    "IC50 / µM": 0.87
  }
]

====

- System: MRC5
- experimental-details: MRC5 CC50 (uM) Cytotoxicity
- Assay type: functional
- measurement-context: Homo sapiens
CC50: recorded values
readout-label: CC50

[
  {
    "molecule-smiles": "Cc1ccccc1C(=O)N1N=C(Nc2ccccc2)SC1(C)C",
    "value-reported": "> 50 µM"
  },
  {
    "molecule-smiles": "COc1ccc(C2=NCCN2)cc1-c1cn(-c2cccc(C3=NCCN3)c2)nn1",
    "value-reported": "> 32 µM"
  },
  {
    "molecule-smiles": "c1ccc(Oc2ccc(-c3cc(CN4CCOCC4)[nH]n3)cc2)cc1",
    "value-reported": "> 32 µM"
  },
  {
    "molecule-smiles": "O=C(Nc1ccccc1-c1nc2c(C(=O)O)cccc2o1)c1ccccc1",
    "value-reported": "> 32 µM"
  },
  {
    "molecule-smiles": "N#CCN(CCCCN1CCN(c2ccc(F)cc2)CC1)C(=O)OCc1ccccc1",
    "value-reported": "> 32 µM"
  },
  {
    "molecule-smiles": "O=C(Nc1ccc2c(c1)B(O)OC2)c1ccccc1C(F)(F)F",
    "value-reported": "> 32 µM"
  }
]

====

- Tested on: Mycobacterium tuberculosis
- experimental-details: AntiMycobacterium tuberculosis activity 1-week GAST/Fe MIC (uM)
- Type: functional
- measurement-context: 168 h
readout-label: MIC

[
  {
    "molecule": "CC1COC2(CCN(c3nc(=O)c4cc(C(F)(F)F)cc([N+](=O)[O-])c4s3)CC2)O1 (stereo unspecified)",
    "value-reported": "< 0.02 µM"
  },
  {
    "molecule": "Cc1cc(O)nc(-n2nc(C)cc2C)n1",
    "value-reported": "1.56 µM"
  },
  {
    "molecule": "COc1cccc(OC)c1C(=O)Nc1ccc(Cl)c(-c2nc3ccccc3s2)c1",
    "value-reported": "6.25 µM"
  },
  {
    "molecule": "Cc1cc(OCC(=O)NCc2ccccc2)c2cc(Br)ccc2n1",
    "value-reported": "0.2 µM"
  },
  {
    "molecule": "O=C(c1cc2ccccc2o1)N1CCN(Cc2ccc3c(c2)OCO3)CC1",
    "value-reported": "0.1 µM"
  },
  {
    "molecule": "Nc1ncnc2c1ncn2[C@@H]1O[C@H](COS(=O)(=O)NC(=O)c2ccccc2O)[C@@H](O)[C@H]1O",
    "value-reported": "0.3 µM"
  }
]

====

- System: Mycobacterium tuberculosis
- experimental-details: AntiMycobacterium tuberculosis activity 2-week Alamar Blue 7H9/cholesterol/BSA/Tx MIC (uM)
- Format: functional
- measurement-context: 336 h
MIC: recorded values

[
  {
    "compound": "CCOc1ccc(OCC(=O)Nc2cc(C)cc(C)c2)cc1",
    "assayed-system": "Mycobacterium tuberculosis",
    "MIC": "> 50 µM"
  },
  {
    "compound": "CCC(C)NC(=O)c1ccc(NC(=O)C2(c3ccccc3)CCCC2)cc1 (stereo not drawn)",
    "assayed-system": "Mycobacterium tuberculosis",
    "MIC": "> 50 µM"
  },
  {
    "compound": "Cc1cc(C)cc(COc2ccc3c(C)c(CCC(=O)O)c(=O)oc3c2C)c1",
    "assayed-system": "Mycobacterium tuberculosis",
    "MIC": "> 50 µM"
  }
]

====

- Tested on: Plasmodium falciparum
- experimental-details: Antimalarial activity: Asexual Blood Stage Plasmodium falciparum 3D7 IC50 (uM)
- Assay type: functional, organism-based
IC50: recorded values

[
  {
    "molecule-smiles": "C[C@]1(O)C[C@@H](c2nc(-c3ccc4ccc(-c5ccccc5)nc4c3)c3c(N)nccn32)C1",
    "IC50": "> 2 µM"
  },
  {
    "molecule-smiles": "C[C@H](C(N)=O)N1CCCC[C@H]1c1ccc(OCc2cccc(F)c2)cc1",
    "IC50": "> 2 µM"
  },
  {
    "molecule-smiles": "CNC(=O)CNc1nc(-c2ccccn2)nc2scc(-c3ccccc3)c12",
    "IC50": "> 2 µM"
  }
]

====

- System: Mycobacterium tuberculosis
- experimental-details: AntiMycobacterium tuberculosis activity 1-week GAST/Fe MIC (uM)
- Type: functional
- measurement-context: 168 h
Lab note: anything with MIC below 2 µM is marked TRUE; values at 2 µM or higher are marked FALSE.

[
  {
    "compound": "O=C(NCc1ccco1)N1CCN(Cc2ccc(Cl)s2)CC1",
    "assayed-system": "Mycobacterium tuberculosis",
    "group": "TRUE"
  },
  {
    "compound": "COc1ccc2nccc(NC(=O)C3CCN(CCc4ccc(Cl)cc4)CC3)c2n1",
    "assayed-system": "Mycobacterium tuberculosis",
    "group": "TRUE"
  },
  {
    "compound": "NCC(c1cccs1)S(=O)(=O)c1ccccc1 (configuration not stated)",
    "assayed-system": "Mycobacterium tuberculosis",
    "group": "TRUE"
  },
  {
    "compound": "CCC(Sc1nc2ccccc2o1)C(=O)Nc1nccs1 (configuration not stated)",
    "assayed-system": "Mycobacterium tuberculosis",
    "group": "FALSE"
  },
  {
    "compound": "CCOC(=O)c1cc(-c2csc(Nc3c(C)cc(C)cc3C)n2)on1",
    "assayed-system": "Mycobacterium tuberculosis",
    "group": "FALSE"
  },
  {
    "compound": "Clc1ccc(CCNc2cc(-c3ccccc3)nc3ncnn23)cc1",
    "assayed-system": "Mycobacterium tuberculosis",
    "group": "TRUE"
  },
  {
    "compound": "NC(CC(=O)c1ccc(Cl)cc1Cl)C(Cl)(Cl)Cl (configuration not stated)",
    "assayed-system": "Mycobacterium tuberculosis",
    "group": "TRUE"
  }
]

====

- Tested on: Plasmodium falciparum
- experimental-details: Antimalarial activity: Asexual Blood Stage Plasmodium falciparum Dd2 IC50 (uM)
- Type: functional, organism-based
IC50: recorded values
readout-label: IC50

[
  {
    "compound": "CCc1ccc(C(NCc2nc(N)nc(N(C)C)n2)C(C)C)cc1 (stereo not given)",
    "assayed-system": "Plasmodium falciparum",
    "value-reported": "> 2 µM"
  },
  {
    "compound": "CCN(CC)CCCN1CCN(C(=O)c2cccc(-c3noc(C(F)(F)F)n3)c2)CC1",
    "assayed-system": "Plasmodium falciparum",
    "value-reported": "0.85 µM"
  },
  {
    "compound": "O=C(c1ccc(NCCO)cc1)C1C[C@H]1c1ccc(Cl)cc1 (stereo not given in full)",
    "assayed-system": "Plasmodium falciparum",
    "value-reported": "1.63 µM"
  },
  {
    "compound": "Cc1ccc2cc(C3NC(=O)c4ccccc4N3)c(Cl)nc2c1 (stereo not given)",
    "assayed-system": "Plasmodium falciparum",
    "value-reported": "2.32 µM"
  },
  {
    "compound": "NCC(=O)N1CCn2c(nc(-c3ccccc3)c2Nc2ccc3c(c2)OCO3)C1",
    "assayed-system": "Plasmodium falciparum",
    "value-reported": "0.89 µM"
  }
]

====

CC50: recorded values
- experimental-details: HL60 CC50 (uM) Cytotoxicity
- Format: functional
- measurement-context: HL-60

[
  {
    "molecule": "CC(Oc1cccc(Cl)c1)C(=O)Nc1ccc2oc(-c3ccncc3)nc2c1 (stereo unspecified)",
    "CC50": "> 25 µM"
  },
  {
    "molecule": "Clc1ccc(-n2cc(COc3ccnc4ccccc34)nn2)cc1",
    "CC50": "> 50 µM"
  },
  {
    "molecule": "CC(C)(C)c1ccc(N[C@@H]2CCCC[C@H]2NC(=O)c2ccco2)cc1",
    "CC50": "> 50 µM"
  },
  {
    "molecule": "COc1cc(NC(=O)Cc2nn(C)c(=O)c3ccccc23)ccc1Cl",
    "CC50": "> 50 µM"
  },
  {
    "molecule": "CN1CCN(c2nccc3[nH]c(-c4cccc(F)c4)cc23)CC1",
    "CC50": "> 12.5 µM"
  },
  {
    "molecule": "CC(C)(C)n1nc(-c2ccccc2)c2c(N)ncnc21",
    "CC50": "> 25 µM"
  },
  {
    "molecule": "O=C(Nc1ccnc(-c2cccnc2)n1)c1cc(C(F)(F)F)cc(C(F)(F)F)c1",
    "CC50": "> 50 µM"
  },
  {
    "molecule": "CC(=O)N1CCN(c2ccc(Oc3ccc(Cl)cc3O)cc2)CC1",
    "CC50": "> 50 µM"
  },
  {
    "molecule": "Nc1nc(N)c2c3c(sc2n1)CN(Cc1ccccc1)CC3",
    "CC50": "> 50 µM"
  },
  {
    "molecule": "Nc1ncnc2[nH]nc(Cc3cccc4ccccc34)c12",
    "CC50": "> 25 µM"
  },
  {
    "molecule": "O=C(Nc1cccc(-c2ccc(NCCCN3CCCC3)nc2)c1)c1ccccc1",
    "CC50": "> 50 µM"
  },
  {
    "molecule": "Nc1ncc(-c2cn[nH]c2)cc1-c1nc2cc(Cl)cnc2[nH]1",
    "CC50": "> 50 µM"
  },
  {
    "molecule": "CC(C)(C)n1nc(Cc2ccc(F)c(Cl)c2)c2c(N)ncnc21",
    "CC50": "> 25 µM"
  },
  {
    "molecule": "COc1ccc(N(CCc2cccc(C)n2)C(=O)C2CCCCC2)cc1",
    "CC50": "> 50 µM"
  },
  {
    "molecule": "COc1ccc(OC)c(NCc2ccc3nc(N)nc(N)c3c2Cl)c1",
    "CC50": "> 25 µM"
  },
  {
    "molecule": "COc1cccc2c(C)nc(N=C(N)N)nc12",
    "CC50": "> 50 µM"
  },
  {
    "molecule": "Cc1cc(NC(=O)c2ccc(Oc3ccc(Cl)cc3O)o2)no1",
    "CC50": "> 50 µM"
  },
  {
    "molecule": "CC(=O)N(CCN(C(=O)c1ccc(F)cc1)c1ccccc1)c1ccccc1",
    "CC50": "> 50 µM"
  },
  {
    "molecule": "CC(=O)Nc1ccc(NC(=O)c2cc(-c3cc(Cl)ccc3O)n[nH]2)cc1",
    "CC50": "> 50 µM"
  },
  {
    "molecule": "CS(=O)(=O)c1cccc(-c2cnc3[nH]cc(-c4ccc(CCC(=O)O)cc4)c3c2)c1",
    "CC50": "> 50 µM"
  },
  {
    "molecule": "CCCS(=O)(=O)N1CCC(CO)(Cc2ccccc2C(F)(F)F)CC1",
    "CC50": "> 50 µM"
  },
  {
    "molecule": "CC(C(=O)Nc1ccc2oc(-c3ccncc3)nc2c1)c1ccccc1 (stereo unspecified)",
    "CC50": "> 50 µM"
  },
  {
    "molecule": "O=C(OCc1ccccc1)N1CCC(c2cc(-c3ccncc3)c(-c3ccc(F)cc3)[nH]2)CC1",
    "CC50": "> 50 µM"
  },
  {
    "molecule": "CCCCc1ccc(NC(=O)Nc2ccc(O[C@H]3CCCC[C@@H]3N(C)c3ccccc3)c(F)c2)cc1",
    "CC50": "> 6.2 µM"
  },
  {
    "molecule": "CC(C)(C)CN1C(=O)C(c2ccccc2)(c2ccccc2)N=C1N",
    "CC50": "6.5 µM"
  },
  {
    "molecule": "CC(C)C(Oc1cccc2ccccc12)C(=O)O (stereo unspecified)",
    "CC50": "> 50 µM"
  },
  {
    "molecule": "COC(=O)c1c(NC(=O)c2cc3ccccc3oc2=O)sc2c1CCN(Cc1ccccc1)C2",
    "CC50": "> 50 µM"
  },
  {
    "molecule": "CS(=O)(=O)N1CCC(Cn2nc(Cc3cccc4ccccc34)c3c(N)ncnc32)CC1",
    "CC50": "47.3 µM"
  },
  {
    "molecule": "CC(C)(C)c1cc(C(=O)N2CCN(c3nccnc3C#N)CC2)n(Cc2ccccc2)n1",
    "CC50": "> 50 µM"
  },
  {
    "molecule": "Nc1ncnc2c1c(Cc1cccc3ccccc13)nn2CC1CCNCC1",
    "CC50": "> 50 µM"
  },
  {
    "molecule": "COc1ccc(N(CCc2cccc(C)n2)C(C)=O)cc1",
    "CC50": "> 50 µM"
  },
  {
    "molecule": "CN1CCC(c2cc(-c3ccncc3)c(-c3ccc(F)cc3)[nH]2)CC1",
    "CC50": "> 50 µM"
  },
  {
    "molecule": "CCC(NC(=O)c1ccccc1NC(=O)c1ccc(C)cc1)C(=O)OC (stereo unspecified)",
    "CC50": "> 50 µM"
  },
  {
    "molecule": "O=C1COCc2ccc(Br)cc2N1Cc1ccc(C(F)(F)F)cc1",
    "CC50": "> 50 µM"
  },
  {
    "molecule": "O=C(Nc1nnc(S)s1)c1cc(Br)ccc1Cl",
    "CC50": "> 50 µM"
  },
  {
    "molecule": "CC(C)n1nc(-c2cc3c(Cl)cccc3[nH]2)c2c(N)ncnc21",
    "CC50": "> 25 µM"
  }
]
